Value source: patent US9884806B2

Examples of compounds with documented IC50 follow.
- target-or-system: first bromodomain (BrD1) of human BRD4 (Homo sapiens)
- Construct: the first bromodomain (BrD1) of human BRD4; poly-His (cleaved yes)
- procedure-text: Fluorescence anisotropy binding assay (competition with FITC-labeled MS417 probe)
- condition-summary: FITC-MS417 probe 80 nM, PBS pH 7.4, 1 hour, 25° C., read-out: BRD4_1 IC50

Consider the reported IC50 for these compounds:
[[record]]
mol_smiles = "COc1ccc(NC(=O)c2cccc(NC3=C(C)C(=O)CC3)c2)cc1"
readout_label = "IC50"
reading = "1 to 10 µM"

[[record]]
mol_smiles = "CC1=C(Nc2cccc(C(=O)Nc3ccccc3F)c2)CCC1=O"
readout_label = "IC50"
reading = "1 to 10 µM"


Return reported IC50. Input compound: COc1cccc(NC(=O)c2ccc(NC3=C(C)C(=O)CC3)c(C)c2)c1 1 to 10 µM

Return reported IC50. Input compound: CC1=C(Nc2ccc(C(=O)Nc3ccccc3)cc2)CCC1=O 1 to 10 µM

Return reported IC50. Input compound: CC1=C(Nc2ccc(C(=O)Nc3ccc(C)cc3)c(Cl)c2)CCC1=O > 10 µM

Return reported IC50. Input compound: CC1=C(N[C@H]2CC[C@@H](C(=O)Nc3ccccc3)CC2)CCC1=O > 10 µM

Return reported IC50. Input compound: CC1=C(N[C@H]2CC[C@H](C(=O)O)CC2)CCC1=O > 10 µM

Return reported IC50. Input compound: COc1ccccc1NC(=O)c1ccc(NC2=C(C)C(=O)CC2)cc1OC < 1 µM

Return reported IC50. Input compound: CC1=C(Nc2ccc(C(=O)Nc3cccc4ccccc34)cc2C)CCC1=O 1 to 10 µM
